test.target: OBP6 (Acyrthosiphon pisum, UniProt A0A8R1TDN2)
Sequence (A0A8R1TDN2 1-160): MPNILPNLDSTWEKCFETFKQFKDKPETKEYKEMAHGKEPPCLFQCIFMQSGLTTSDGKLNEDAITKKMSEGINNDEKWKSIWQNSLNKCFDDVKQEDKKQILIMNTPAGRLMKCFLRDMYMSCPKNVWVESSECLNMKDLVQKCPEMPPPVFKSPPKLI
method: Fluorescent probe-free (intrinsic tryptophan fluorescence) binding assay, OBP6
measured.parameter: Kd

OBP6 (Acyrthosiphon pisum, UniProt A0A8R1TDN2) / Kd / CC1=COC(=O)[C@H]2[C@H](C)CC[C@@H]12 [Compound D] : value?
12 µM

* * *

What Kd was measured for each of the following?
test.target: OBP9 (Acyrthosiphon pisum)
Sequence (A0A8R1TD77 1-165): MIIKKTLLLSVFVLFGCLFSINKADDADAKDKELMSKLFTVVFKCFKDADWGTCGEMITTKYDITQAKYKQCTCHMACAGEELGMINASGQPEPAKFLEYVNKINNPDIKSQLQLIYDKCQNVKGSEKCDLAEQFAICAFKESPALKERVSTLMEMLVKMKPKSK
method: 1-NPN fluorescence competitive binding assay, OBP9
condition.notes: OBP9 with 1-NPN fluorescent probe; non-linear regression, ± error; read-out: OBP9 1-NPN Assay KD
Numbers only, in µM.

These solved cases illustrate the format of a correct answer.
Find the recorded Kd belonging to CC1=CO[C@H](O)[C@H]2[C@H](C)CC[C@@H]12 and report it.
6.29

And then CC1=COC(=O)[C@H]2[C@@H]1CC[C@@H]2C , what is it?
6.49

Same again, this time with C=CC(=C)CC/C=C(\C)CCC=C(C)C [(E)-β-farnesene]
8.32

Query molecule follows.
Any idea what its Kd is? The molecule is CC1=CO[C@@H](O)[C@H]2[C@@H]1CC[C@@H]2C
5.74

* * *

test.target: OBP6 (Acyrthosiphon pisum, UniProt A0A8R1TDN2)
method: 1-NPN fluorescence competitive binding assay, OBP6
condition.notes: OBP6 with 1-NPN fluorescent probe; non-linear regression, ± error; read-out: OBP6 1-NPN Assay KD
Give pKd for every item shown.
One number for each entry, as −log10 of the molar value.

// query pKd value for entry CC1=CO[C@H](O)[C@H]2[C@H](C)CC[C@@H]12
5.58

For CC1=COC(=O)[C@H]2[C@@H]1CC[C@@H]2C then?
5.89

Same read-out for CC1=CO[C@@H](O)[C@H]2[C@@H]1CC[C@@H]2C ?
5.58

***
Need pKd, item C=CC(=C)CC/C=C(\C)CCC=C(C)C [(E)-β-farnesene]
4.99

* * *

test.target: OBP6 (Acyrthosiphon pisum, UniProt A0A8R1TDN2)
method: Fluorescent probe-free (intrinsic tryptophan fluorescence) binding assay, OBP6
condition.notes: OBP6, absence of fluorescent probe; non-linear regression, ± error; read-out: OBP6 Fluorescent Probe-Free Assay KD
measured.parameter: pKd
Numbers only, as −log10 of the molar value.

Name the recorded pKd for CC1=CO[C@@H](O)[C@H]2[C@@H]1CC[C@@H]2C .
4.89

Quick request: pKd for each listed item, please.
1. CC1=CO[C@H](O)[C@H]2[C@H](C)CC[C@@H]12
2. CC1=COC(=O)[C@H]2[C@@H]1CC[C@@H]2C
3. C=CC(=C)CC/C=C(\C)CCC=C(C)C [(E)-β-farnesene]

1. 5.07
2. 5.72
3. 4.46

Reference source: patent US20230312476A1
